- testedOn: Glutamate NMDA receptor; Grin1/Grin2a (Rattus norvegicus) (UniProt P35439+Q00959)
- assayProcedure: Partial agonist activity at recombinant rat GluN1/GluN2A NMDA receptor expressed in xenopus laevis oocytes by measuring maximum response by two-electrode voltage-clamp method relative to glycine
- Assay type: cell-based
- assaySetup: filed as partial agonist
propertyMeasured: Rmax (%)
Response body: numeric value in %, unit text excluded.

## Input Specify Rmax for N[C@H](CNC(=O)c1ccc(-c2cccc3ccccc23)s1)C(=O)O and stop.
## Output 59

## Input Fill in reported Rmax for this entry: N[C@H](CNC(=O)c1ccc(-c2ccccc2C(F)(F)F)s1)C(=O)O
## Output 62

## Input Give me measured Rmax, please, for this compound: COc1ccccc1-c1ccc(C(=O)NC[C@@H](N)C(=O)O)s1
## Output 90

## Input Give the value of Rmax reported for the following: N[C@H](CO)C(=O)O
## Output 102

## Input Determine from records and report Rmax for CCc1ccccc1-c1ccc(C(=O)NC[C@@H](N)C(=O)O)s1
## Output 77

## Input For NCC(=O)O , write its Rmax.
## Output 100

## Input Report Rmax for N[C@H](CNC(=O)c1ccc(-c2ccccc2F)s1)C(=O)O
## Output 63

## Input Tell me measured Rmax for N[C@H](CNC(=O)c1ccc(-c2cccc(F)c2F)s1)C(=O)O please.
## Output 62

## Input Please list Rmax recorded for the compound N[C@H](CNC(=O)c1cc(Br)c(-c2ccccc2F)s1)C(=O)O
## Output 54

## Input # return recorded Rmax for input COc1cccc(F)c1-c1ccc(C(=O)NC[C@@H](N)C(=O)O)s1
## Output 67

## Input Given the compound Cc1cc(C(=O)NC[C@@H](N)C(=O)O)sc1-c1ccccc1Br , write its reported Rmax.
## Output 75

## Input Assign Rmax to the following record: N[C@H](CNC(=O)c1ccc(-c2cccc(F)c2)s1)C(=O)O
## Output 61
